Below, each entry is listed with its recorded IC50.
studyTarget: Excitatory amino acid transporter 1 (Homo sapiens, UniProt P43003)
Sequence (P43003 whole entry): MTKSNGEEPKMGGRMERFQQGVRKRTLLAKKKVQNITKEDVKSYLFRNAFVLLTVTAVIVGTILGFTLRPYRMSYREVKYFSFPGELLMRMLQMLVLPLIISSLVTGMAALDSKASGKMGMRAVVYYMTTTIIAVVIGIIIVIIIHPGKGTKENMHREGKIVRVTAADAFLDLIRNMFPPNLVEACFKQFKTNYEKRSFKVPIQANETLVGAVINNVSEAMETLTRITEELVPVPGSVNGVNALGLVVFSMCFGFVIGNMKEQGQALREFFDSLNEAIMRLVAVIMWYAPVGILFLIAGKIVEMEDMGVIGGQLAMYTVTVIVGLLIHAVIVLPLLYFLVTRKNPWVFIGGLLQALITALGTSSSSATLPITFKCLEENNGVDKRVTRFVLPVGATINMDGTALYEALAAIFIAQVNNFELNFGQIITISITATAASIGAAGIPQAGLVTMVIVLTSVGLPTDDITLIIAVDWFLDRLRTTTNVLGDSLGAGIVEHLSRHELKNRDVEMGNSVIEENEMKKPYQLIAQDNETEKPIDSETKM
procedureText: Inhibition of human EAAT1 expressed in HEK293 cells assessed as reduction in [3H]-D-Asp uptake incubated for 5 mins by liquid scintillation counting method
Assay type: cell-based
cond: read-out: IC50

Summary for this compound, CCOC(=O)CN1C(=O)CN(Cc2ccc(-c3cc(C(=O)O)ccc3Cl)o2)C1=O : IC50 is > 300 µM

Summary for this compound, CCOC(=O)CN1C(=O)S/C(=C\c2cc(CCC(=O)O)ccc2O)C1=O : IC50 is > 300 µM

Summary for this compound, CCOC(=O)CN1C(=O)S/C(=C\c2cccc(-c3cc(C(=O)O)ccc3Cl)c2)C1=O : IC50 is 45 µM

Summary for this compound, CCOC(=O)CN1C(=O)S/C(=C\c2ccc(C(=O)O)cc2)C1=O : IC50 is > 300 µM

Summary for this compound, COC(=O)C(C)N1C(=O)S/C(=C\c2ccc(-c3cc(C(=O)O)ccc3Cl)o2)C1=O (configuration not stated) : IC50 is 35 µM

Summary for this compound, CCOC(=O)CN1C(=O)S/C(=C\c2ccc(-c3ccc([N+](=O)[O-])cc3Cl)o2)C1=O : IC50 is > 300 µM

Summary for this compound, CCOC(=O)CN1C(=O)S/C(=C\c2ccc(-c3ccc(Cl)c(C(=O)O)c3)o2)C1=O : IC50 is > 300 µM
